molecular target: Rabies virus glycoprotein G, strain CVS-11 (Challenge Virus Standard-11, ATCC VR 959) (Rabies virus, strain CVS-11); assay: cell-based or functional assay
Quick reference: CVS neutralizing antibody titre (RFFIT): IU/mg of the listed items.
QUANTITY KIND: CVS neutralizing antibody titre (RFFIT): IU/mg

BINDER: 214-E8 15GS 213-H7 (VHH) EVQLVESGGGSVQAGGSLRLSCAASGGTFNPYVMAWFRQAPGNEREFVARIRWSGGDAYYDDSVKGRFAITRDAAKNTVHLQMNSLKPEDTAVYYCAAATYGYGSYTYGGSYDLWGQGTQVTVSSGGGGSGGGGSGGGGSEVQLVESGGGLVQAGGSLRLSCAASGRTLSSYRMGWFRQAPGKEREFISTISWNGRSTYYADSVKGRFIFSEDNAKNTVYLQMNSLKPEDTAVYYCAAALIGGYYSDVDAWSYWGPGTQVTVSS
ASSAY VALUE: 8220 IU/mg

BINDER: 214-E8 15GS 212-C12 (VHH) EVQLVESGGGSVQAGGSLRLSCAASGGTFNPYVMAWFRQAPGNEREFVARIRWSGGDAYYDDSVKGRFAITRDAAKNTVHLQMNSLKPEDTAVYYCAAATYGYGSYTYGGSYDLWGQGTQVTVSSGGGGSGGGGSGGGGSEVQLVESGGGLVQPGGSLRLSCAASGFTFGSSDMSWVRQAPGKGPEWVSGINSGGGRTLYADSVKGRFTISRDNAKNTLYLQMNSLKSEDTAVYYCATDLYGSSWYTDYWSQGTQVTVSS
ASSAY VALUE: 322 IU/mg

BINDER: 213-E6 25GS 214-E8 (VHH) EVQLVESGGGLVQAGASLRLSCAASGSTLSRYGVGWFRQAPGKERELVASVDWSGSRTYYADSVKGRFTISRDNAKNTGYLQMNSLKPDDTAVYYCAADSSVVPGIEKYDDWGLGTQVTVSSGGGGSGGGGSGGGGSGGGGSGGGGSEVQLVESGGGSVQAGGSLRLSCAASGGTFNPYVMAWFRQAPGNEREFVARIRWSGGDAYYDDSVKGRFAITRDAAKNTVHLQMNSLKPEDTAVYYCAAATYGYGSYTYGGSYDLWGQGTQVTVSS
ASSAY VALUE: 657 IU/mg
